Tested on: DLD-1
PROTOCOL: NCI tumour cell line growth inhibition, 48 h
The source made the active and inactive calls. No stated cut-off is given here; in the data, active = GI50 up to about 1.1 µM and inactive = higher.
OBSERVATION_TYPE: GI50

Qu. What measured GI50 is associated with O=C(O)CCC(=O)N1C/C(=C\c2ccccc2)C(=O)/C(=C/c2ccccc2)C1 on DLD-1?
Ans. 2.32 µM (inactive)

Qu. What measured GI50 is associated with Cc1cccc(C)c1NC(=O)CCCC(=O)C1/C(=N/NC(=O)CC#N)CCC/C1=N\NC(=O)CC#N (stereo not drawn) on DLD-1?
Ans. > 100 µM (inactive)

Qu. GET /values?readout=GI50&system=DLD-1&item= C/C(=N/O)c1sc(-c2nc(C)c(/C(C)=N\O)s2)nc1C
Ans. > 100 µM (inactive)

###

Tested on: MDA-MB-231
PROTOCOL: NCI tumour cell line growth inhibition, 48 h
Calls of active or inactive are those of the source. No stated cut-off is given here; in the data, active = GI50 up to about 1.1 µM and inactive = higher.
OBSERVATION_TYPE: GI50

{"COMPOUND": "CCN1C(c2ccccc2)=CC(c2ccccc2)(C(Cl)(Cl)Cl)C=C1c1ccccc1", "RESULT": "3.4 µM (inactive)"}
{"COMPOUND": "N=C(N)NC(=N)Nc1ccc(S(N)(=O)=O)cc1", "RESULT": "> 100 µM (inactive)"}
{"COMPOUND": "CC/C(=C/OC)P1(=O)OC(C)(C)CN1C(C)(C)C (stereo not given)", "RESULT": "> 100 µM (inactive)"}
{"COMPOUND": "O=Cc1cccc2ccc3ccccc3c12", "RESULT": "17 µM (inactive)"}

Moving on to another compound below.
Qu. Quick check: GI50 of CN(C(=O)c1ccccc1)C1CCCC(=O)CC1 (stereo not given) ?
Ans. > 100 µM (inactive)

###

Tested on: KM12
PROTOCOL: NCI tumour cell line growth inhibition, 48 h
Calls of active or inactive are those of the source. Cut-off read from the data, not from the text of the source: active = GI50 up to about 1.1 µM and inactive = higher.
Give your call using only these classes: active, inactive

Some solved entries appear below for comparison.
{"COMPOUND": "O=C(/C=C/c1ccccc1)c1ccc(Cl)cc1Cl", "LABEL_CLASS": "inactive"}
{"COMPOUND": "COC(=O)c1onc(-c2c(OC)cc(OC)cc2OC)c1C(=O)OC", "LABEL_CLASS": "inactive"}
{"COMPOUND": "CC1=NN(c2cccc(S(=O)(=O)O)c2)C2(C1)C(Cl)C(=O)N2c1nc2ccccc2s1 (stereo not drawn)", "LABEL_CLASS": "inactive"}

Qu. Give the logged outcome of this assay for the following compound: COc1cc(/C=C/c2ccc(C)cc2)cc(OC)c1OC
Ans. inactive

Qu. Lab log entry: CC(C)(C)OC(=O)Cc1ccc2c(ccn2Cc2ccccc2)c1 — outcome as called in the assay?
Ans. inactive

Qu. Recorded test call requested for CCC(Cc1cnc2nc(N)nc(N)c2n1)c1ccc(C(=O)NC(CCC(=O)O)C(=O)O)cc1 (stereo not drawn)
Ans. active

Qu. Entry CC1(C)OC2C(O)C(CO)OC2(C(F)F)O1 (stereo not drawn) : call = ?
Ans. inactive

###

Tested on: RXF 393
PROTOCOL: NCI tumour cell line growth inhibition, 48 h
The source made the active and inactive calls. No stated cut-off is given here; in the data, active = GI50 up to about 1.1 µM and inactive = higher.
Pick one: active, inactive

Observe how each entry below is paired with its result.
{"COMPOUND": "CN(/N=C/c1ccnc2ccccc12)c1ccc([N+](=O)[O-])cc1[N+](=O)[O-]", "EXPERIMENTAL_SYSTEM": "RXF 393", "LABEL_CLASS": "inactive"}
{"COMPOUND": "NCC(=O)NC(CO)C(=O)O (centres undefined)", "EXPERIMENTAL_SYSTEM": "RXF 393", "LABEL_CLASS": "inactive"}
{"COMPOUND": "CN(C)c1ccc(/C=C(\\NC(=O)c2ccccc2)C(=O)Nc2ccccc2C(=O)NCc2ccccc2)cc1", "EXPERIMENTAL_SYSTEM": "RXF 393", "LABEL_CLASS": "inactive"}

Please find the next compound below.
Qu. Can you look up the reported call for COc1ccc(C(CC(=O)c2ccc3c(c2)OCO3)c2c(O)oc3ccccc3c2=O)cc1OC (centres undefined) for me?
Ans. inactive

###

System: Hs-578T
PROTOCOL: NCI tumour cell line growth inhibition, 48 h
Calls of active or inactive are those of the source. Rule as the data show it: active = GI50 up to about 1.1 µM and inactive = higher.
OBSERVATION_TYPE: GI50

{"COMPOUND": "COc1cc(Nc2cnc3cc(F)c(F)cc3n2)cc(OC)c1", "EXPERIMENTAL_SYSTEM": "Hs-578T", "GI50": "37.7 µM (inactive)"}

Qu. What measured GI50 goes with COc1cc(/C=N/c2nc3cc4sc(/N=C/c5cc(OC)c(OC)c(OC)c5)nc4cc3s2)cc(OC)c1OC ?
Ans. > 100 µM (inactive)

Qu. State the recorded GI50 for this entry: COc1cccc(C2SCC(=O)N2c2ccc(-n3c(-c4ccccc4)nc4ccccc4c3=O)cc2)c1OC (centres undefined)
Ans. > 100 µM (inactive)

Qu. Requested read-out: GI50. Entry: CC(C)(CN1CCCCC1)C(/C=C/c1ccc(Cl)c(Cl)c1)=N\NC(=O)N/N=C(/C=C/c1ccc(Cl)c(Cl)c1)C(C)(C)CN1CCCCC1
Ans. 1.81 µM (inactive)

###

System: SNB-75
PROTOCOL: NCI tumour cell line growth inhibition, 48 h
The source made the active and inactive calls. Cut-off read from the data, not from the text of the source: active = GI50 up to about 1.1 µM and inactive = higher.
Here, each record is paired with measured GI50 data.

{"MOLECULE": "CCCC1=NC(C(F)(F)F)(C(F)(F)F)N=C(N2CCOCC2)O1", "GI50": "> 100 µM (inactive)"}
{"MOLECULE": "CCOC(=O)c1c(C)n(Cc2ccc(Cl)cc2Cl)c2c1cc(O)c1[nH]c3c(c12)CCCC3", "GI50": "23.3 µM (inactive)"}
{"MOLECULE": "CCCCCCCC/C=C\\CCCCCCC/C=C1/C[C@](/C=C/C(=O)OC)(CO)OC1=O", "GI50": "7.66 µM (inactive)"}
{"MOLECULE": "C[N+]1(C)C/C(=C\\c2ccncc2)C(=O)/C(=C/c2ccncc2)C1", "GI50": "> 100 µM (inactive)"}
{"MOLECULE": "C=CCCCCn1c2ccccc2c2c(C)c3cnccc3c(C)c21", "GI50": "3.88 µM (inactive)"}

Kindly consider the entry below.
Qu. Entry O=C(CSCC(=O)N/N=C\c1cccc([N+](=O)[O-])c1)N/N=C\c1cccc([N+](=O)[O-])c1 : reported GI50 = ?
Ans. 37.1 µM (inactive)

###

The reader will find reported GI50 values listed item by item below.
Test system: KM-20L2
PROTOCOL: NCI tumour cell line growth inhibition, 48 h
Active and inactive are the calls of the source. Cut-off read from the data, not from the text of the source: active = GI50 up to about 1.1 µM and inactive = higher.

Some entries whose results are on file:
{"COMPOUND": "COc1nc(NC2OCC(OC(C)=O)C(OC(C)=O)C2OC(C)=O)c(/N=C\\C=N\\c2c(NC3OCC(OC(C)=O)C(OC(C)=O)C3OC(C)=O)nc(OC)n(C)c2=O)c(=O)n1C (stereo unspecified)", "RESULT": "> 100 µM (inactive)"}
{"COMPOUND": "COc1cc(/C=C/c2ccc(C)cc2)cc(OC)c1OC", "RESULT": "2.09 µM (inactive)"}
{"COMPOUND": "C/C(=N/O)c1sc(-c2nc(C)c(/C(C)=N\\O)s2)nc1C", "RESULT": "> 100 µM (inactive)"}
{"COMPOUND": "O=C(COc1ccc(Cl)cc1)N1N=C(c2ccc([N+](=O)[O-])o2)CC1(O)c1ccccc1 (stereo unspecified)", "RESULT": "12.3 µM (inactive)"}
{"COMPOUND": "Cc1cc2c(Br)cc(Br)c(O)c2nc1C(=O)c1ccccc1", "RESULT": "28.4 µM (inactive)"}
{"COMPOUND": "O=C(O)CCC1CCc2cccc3occ1c23 (stereo unspecified)", "RESULT": "> 100 µM (inactive)"}

Qu. Param readout = GI50; param system = KM-20L2; param query = CC(C)(C)OC(=O)Cc1ccc2c(ccn2Cc2ccccc2)c1 ; response: value
Ans. 26.3 µM (inactive)

Qu. Any idea what GI50 came out for C1CCC(OCc2nnn3c2CCC3)OC1 (stereo unspecified) on KM-20L2?
Ans. > 100 µM (inactive)

Qu. Can you look up GI50 on KM-20L2 for CC(=O)Nc1ccc(/C=c2\sc3nnc(-c4cccnc4)n3c2=O)cc1 ?
Ans. 17.5 µM (inactive)

Qu. Give GI50 (KM-20L2) of the following compound: O=C(NCCS(=O)(=O)N1C(=O)C2CCCN2C(=O)[C@@H]1Cc1ccccc1)OCc1ccccc1 (stereo partly specified)
Ans. 45.8 µM (inactive)

Qu. # query: GI50 | item CCCCCCCc1cc(OC(=O)c2c(C)cc(OC)cc2O)cc(O)c1C(=O)O | system: KM-20L2
Ans. 21.2 µM (inactive)
